system tested: RPS6KB1 (human)
experiment summary: radiometric filter-binding kinase assay, Kinase HotSpot
experimental conditions: compound 0.5 µM; ATP 10 µM
endpoint name: residual activity (%)
Expressed in %, but write only the number.

Nc1nc(Nc2ccc(S(N)(=O)=O)cc2)nn1C(=O)c1c(F)cccc1F: 92.1
O=C1Nc2ccccc2/C1=C\c1c(Cl)[nH]c2ccccc12: 99.7
CSc1nc(-c2ccc(F)cc2)c(-c2ccnc(NC(C)c3ccccc3)c2)[nH]1 (stereo not given): 91.2
Clc1ccc(Nc2nnc(Cc3ccncc3)c3ccccc23)cc1: 102
COc1cc2ncnc(Nc3ccc(F)c(Cl)c3)c2cc1OCCCN1CCOCC1: 93.9

Fill in the blank: the reported residual activity of O=C(NC(NC(=S)Nc1ccc(F)c([N+](=O)[O-])c1)C(Cl)(Cl)Cl)C(c1ccccc1)c1ccccc1 (stereo not given) is ____.
91.9

Sample Nc1nc(Nc2ccc(S(N)(=O)=O)cc2)nn1C(=S)Nc1c(F)cccc1F — what was its residual activity?
30

# input molecule: COc1cc2nccc(Oc3ccc(NC(=S)NC(=O)c4ccccc4C)cc3)c2cc1OC ; wanted: its residual activity
98

Reported residual activity for C#Cc1cccc(Nc2ncnc3cc(OCCOC)c(OCCOC)cc23)c1 : what is it?
95.1

Could you share which residual activity value was measured for CS(=O)c1ccc(-c2nc(-c3ccc(F)cc3)c(-c3ccncc3)[nH]2)cc1 (stereo not given) ?
97.4

----------
system tested: MUSK (human)
experiment summary: radiometric filter-binding kinase assay, Kinase HotSpot
experimental conditions: compound 0.5 µM; ATP 10 µM
endpoint name: residual activity (%)
Number only, in %; omit the unit.

Form field: reported residual activity of COc1cc2nccc(Oc3ccc(NC(=S)NC(=O)c4ccccc4C)cc3)c2cc1OC
95.9

Which value of residual activity has been reported for COc1cc2ncnc(Nc3ccc(F)c(Cl)c3)c2cc1OCCCN1CCOCC1 in the records?
98.1

Requested read-out: residual activity. Entry: CCN1/C(=C/C(C)=O)Sc2ccc(OC)cc21
28.4

Give its residual activity value. Item: Cc1cc2ncc(-c3ccccc3)nc2cc1C
102

Using the record for COc1ccc(-c2cnc3c(-c4ccsc4)cnn3c2)cc1 , report its residual activity.
74.9

Please report the recorded residual activity for O=C1Cc2c([nH]c3ccc([N+](=O)[O-])cc23)-c2ccccc2N1 .
68.5

What measured residual activity goes with CC(C)n1cnc2c(Nc3cccc(Cl)c3)nc(NCCO)nc21 ?
58.6

----------
# residual activity values compiled below
system tested: IGF1R (human) (UniProt P08069)
Sequence (P08069 whole entry, looked up): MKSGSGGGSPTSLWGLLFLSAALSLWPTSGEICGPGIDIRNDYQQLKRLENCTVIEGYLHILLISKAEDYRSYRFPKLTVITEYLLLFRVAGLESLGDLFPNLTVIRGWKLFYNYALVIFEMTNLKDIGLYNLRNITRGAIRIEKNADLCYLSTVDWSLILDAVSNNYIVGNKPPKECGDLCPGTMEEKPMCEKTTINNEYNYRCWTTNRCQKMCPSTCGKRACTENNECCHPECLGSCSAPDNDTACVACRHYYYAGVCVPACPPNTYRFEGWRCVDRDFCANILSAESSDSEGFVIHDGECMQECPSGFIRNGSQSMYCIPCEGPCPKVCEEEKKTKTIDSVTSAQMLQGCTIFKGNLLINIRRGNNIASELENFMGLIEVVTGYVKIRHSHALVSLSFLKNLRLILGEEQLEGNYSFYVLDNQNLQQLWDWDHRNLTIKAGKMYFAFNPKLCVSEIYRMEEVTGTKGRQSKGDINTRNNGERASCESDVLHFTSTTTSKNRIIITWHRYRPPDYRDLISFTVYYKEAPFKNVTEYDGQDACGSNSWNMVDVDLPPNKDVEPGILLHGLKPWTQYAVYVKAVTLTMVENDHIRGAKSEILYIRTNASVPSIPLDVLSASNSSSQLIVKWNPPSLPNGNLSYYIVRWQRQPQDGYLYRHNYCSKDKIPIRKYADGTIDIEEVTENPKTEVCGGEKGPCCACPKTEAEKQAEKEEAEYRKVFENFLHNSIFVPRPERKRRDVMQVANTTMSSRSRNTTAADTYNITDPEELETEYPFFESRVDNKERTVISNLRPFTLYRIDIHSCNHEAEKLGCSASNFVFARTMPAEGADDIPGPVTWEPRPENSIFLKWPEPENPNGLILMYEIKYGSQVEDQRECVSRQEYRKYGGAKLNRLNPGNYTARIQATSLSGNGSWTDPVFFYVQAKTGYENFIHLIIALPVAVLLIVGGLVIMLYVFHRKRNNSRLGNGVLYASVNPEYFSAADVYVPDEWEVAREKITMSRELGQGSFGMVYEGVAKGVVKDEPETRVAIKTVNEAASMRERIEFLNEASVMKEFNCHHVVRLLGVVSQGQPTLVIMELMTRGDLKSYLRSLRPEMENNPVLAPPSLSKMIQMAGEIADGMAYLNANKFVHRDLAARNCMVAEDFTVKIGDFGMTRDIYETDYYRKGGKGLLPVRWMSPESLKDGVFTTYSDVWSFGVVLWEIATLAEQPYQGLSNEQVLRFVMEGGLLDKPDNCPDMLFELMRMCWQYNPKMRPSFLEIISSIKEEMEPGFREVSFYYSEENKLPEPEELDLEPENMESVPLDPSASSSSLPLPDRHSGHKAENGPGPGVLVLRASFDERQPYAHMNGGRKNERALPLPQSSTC
experiment summary: radiometric filter-binding kinase assay, Kinase HotSpot
experimental conditions: compound 0.5 µM; ATP 10 µM
Answer with a number only, understood to be in %.

For orientation, consider the following solved cases.
CC(C)[C@H](CO)Nc1nc(Nc2cccc(Cl)c2)c2ncn(C(C)C)c2n1: 100
Nc1nc(Nc2ccc(S(N)(=O)=O)cc2)nn1C(=O)c1c(F)cccc1F: 86.9
O=C1Cc2c([nH]c3ccc([N+](=O)[O-])cc23)-c2ccccc2N1: 93
COc1cc2nccc(Oc3ccc(NC(=S)NC(=O)c4ccccc4C)cc3)c2cc1OC: 92.1
O=C(NC(NC(=S)Nc1ccc(F)c([N+](=O)[O-])c1)C(Cl)(Cl)Cl)C(c1ccccc1)c1ccccc1 (stereo not given): 93.7

Now for another entry.
// lookup residual activity for Cc1ccc(NC(=O)c2ccc(CN3CCN(C)CC3)cc2)cc1Nc1nc(-c2cccnc2)cs1
101

----------
system tested: STK39 (human)
experiment summary: radiometric filter-binding kinase assay, Kinase HotSpot
experimental conditions: compound 0.5 µM; ATP 10 µM
The following compounds are shown together with reported residual activity values.
Dear colleague, please return just the value in %, with no unit written.

O=C(NC(NC(=S)Nc1ccc(F)c([N+](=O)[O-])c1)C(Cl)(Cl)Cl)C(c1ccccc1)c1ccccc1 (stereo unspecified): 77

Item under review: O=C(Nc1ccc(Cl)cc1)c1ccccc1NCc1ccncc1 . Reported residual activity?
94.7

May I ask what residual activity has been recorded for O=C1Nc2cc(Br)ccc2/C1=C1/Nc2ccccc2/C1=N\O ?
104

Bench note: what residual activity did CSc1nc(-c2ccc(F)cc2)c(-c2ccnc(NC(C)c3ccccc3)c2)[nH]1 (stereo unspecified) show?
95

----------
system tested: CDK1 CCNB1 (human) (UniProt P06493+P14635)
Sequence (P06493 whole entry, looked up): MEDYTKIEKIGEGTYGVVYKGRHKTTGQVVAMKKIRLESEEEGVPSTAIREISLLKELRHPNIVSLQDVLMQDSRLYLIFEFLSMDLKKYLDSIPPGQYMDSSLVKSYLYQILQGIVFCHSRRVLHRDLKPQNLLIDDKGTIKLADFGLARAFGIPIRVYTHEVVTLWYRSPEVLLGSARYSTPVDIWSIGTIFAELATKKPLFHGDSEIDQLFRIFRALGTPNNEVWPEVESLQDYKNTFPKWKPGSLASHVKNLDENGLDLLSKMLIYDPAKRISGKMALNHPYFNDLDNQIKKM
Sequence (P14635 whole entry, looked up): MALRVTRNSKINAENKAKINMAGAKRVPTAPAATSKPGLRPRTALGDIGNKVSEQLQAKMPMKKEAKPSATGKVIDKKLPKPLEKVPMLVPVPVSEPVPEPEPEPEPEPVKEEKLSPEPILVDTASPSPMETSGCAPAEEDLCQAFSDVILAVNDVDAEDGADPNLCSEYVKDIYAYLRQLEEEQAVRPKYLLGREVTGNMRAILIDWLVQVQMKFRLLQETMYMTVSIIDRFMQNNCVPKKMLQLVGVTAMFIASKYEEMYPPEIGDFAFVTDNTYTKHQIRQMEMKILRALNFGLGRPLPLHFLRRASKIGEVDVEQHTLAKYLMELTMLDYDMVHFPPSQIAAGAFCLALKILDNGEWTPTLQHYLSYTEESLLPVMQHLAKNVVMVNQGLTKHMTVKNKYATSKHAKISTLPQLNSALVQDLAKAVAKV
experiment summary: radiometric filter-binding kinase assay, Kinase HotSpot
experimental conditions: compound 0.5 µM; ATP 10 µM
Item-by-item account of residual activity
# output: bare number, implied unit %

Examples from the recorded data:
Nc1nc(Nc2ccc(S(N)(=O)=O)cc2)nn1C(=S)Nc1c(F)cccc1F: -1.78
CC(C)[C@H](CO)Nc1nc(Nc2cccc(Cl)c2)c2ncn(C(C)C)c2n1: 34.9
Cc1cc2ncc(-c3ccccc3)nc2cc1C: 108

Fill in: residual activity of CCCNC(=O)Nc1ccc(Oc2ncnc3cc(OC)c(OC)cc23)cc1Cl is ___
98

// residual activity lookup, key: O=C(NC(NC(=S)Nc1ccc(F)c([N+](=O)[O-])c1)C(Cl)(Cl)Cl)C(c1ccccc1)c1ccccc1 (configuration not stated)
92.1

Can you share its residual activity? I mean this compound: CC(C)(C)c1nc2c3ccc(F)cc3c3c(=O)[nH]ccc3c2[nH]1
74.9

# lookup: residual activity of CSc1nc(-c2ccc(F)cc2)c(-c2ccnc(NC(C)c3ccccc3)c2)[nH]1 (configuration not stated)
106

----------
system tested: AURKB (human)
experiment summary: radiometric filter-binding kinase assay, Kinase HotSpot
experimental conditions: compound 0.5 µM; ATP 10 µM
Reported residual activity by item:
The response must be a number in % with no trailing unit.

Look up residual activity: CS(=O)c1ccc(-c2nc(-c3ccc(F)cc3)c(-c3ccncc3)[nH]2)cc1 (stereo not given)
87.7

Entry under review: Nc1nc(Nc2ccc(S(N)(=O)=O)cc2)nn1C(=S)Nc1c(F)cccc1F . Reported residual activity?
12.9

----------
system tested: PAK4 (human)
experiment summary: radiometric filter-binding kinase assay, Kinase HotSpot
experimental conditions: compound 0.5 µM; ATP 10 µM
Reported residual activity by item:
Units required after the number.

Sample records with residual activity:
O=C(Nc1ccc(Cl)cc1)c1ccccc1NCc1ccncc1: 90.6%
C#Cc1cccc(Nc2ncnc3cc(OCCOC)c(OCCOC)cc23)c1: 91.8%
Clc1ccc(Nc2nnc(Cc3ccncc3)c3ccccc23)cc1: 95.8%
CC(C)n1cnc2c(Nc3cccc(Cl)c3)nc(NCCO)nc21: 105%
CCCNC(=O)Nc1ccc(Oc2ncnc3cc(OC)c(OC)cc23)cc1Cl: 95.7%

# context switch: different compound, same residual activity
Query: residual activity; subject: O=C1Nc2cc(Br)ccc2/C1=C1/Nc2ccccc2/C1=N\O
95.3%

----------
system tested: CDC42BPA (human) (UniProt Q5VT25)
Sequence (Q5VT25 whole entry, looked up): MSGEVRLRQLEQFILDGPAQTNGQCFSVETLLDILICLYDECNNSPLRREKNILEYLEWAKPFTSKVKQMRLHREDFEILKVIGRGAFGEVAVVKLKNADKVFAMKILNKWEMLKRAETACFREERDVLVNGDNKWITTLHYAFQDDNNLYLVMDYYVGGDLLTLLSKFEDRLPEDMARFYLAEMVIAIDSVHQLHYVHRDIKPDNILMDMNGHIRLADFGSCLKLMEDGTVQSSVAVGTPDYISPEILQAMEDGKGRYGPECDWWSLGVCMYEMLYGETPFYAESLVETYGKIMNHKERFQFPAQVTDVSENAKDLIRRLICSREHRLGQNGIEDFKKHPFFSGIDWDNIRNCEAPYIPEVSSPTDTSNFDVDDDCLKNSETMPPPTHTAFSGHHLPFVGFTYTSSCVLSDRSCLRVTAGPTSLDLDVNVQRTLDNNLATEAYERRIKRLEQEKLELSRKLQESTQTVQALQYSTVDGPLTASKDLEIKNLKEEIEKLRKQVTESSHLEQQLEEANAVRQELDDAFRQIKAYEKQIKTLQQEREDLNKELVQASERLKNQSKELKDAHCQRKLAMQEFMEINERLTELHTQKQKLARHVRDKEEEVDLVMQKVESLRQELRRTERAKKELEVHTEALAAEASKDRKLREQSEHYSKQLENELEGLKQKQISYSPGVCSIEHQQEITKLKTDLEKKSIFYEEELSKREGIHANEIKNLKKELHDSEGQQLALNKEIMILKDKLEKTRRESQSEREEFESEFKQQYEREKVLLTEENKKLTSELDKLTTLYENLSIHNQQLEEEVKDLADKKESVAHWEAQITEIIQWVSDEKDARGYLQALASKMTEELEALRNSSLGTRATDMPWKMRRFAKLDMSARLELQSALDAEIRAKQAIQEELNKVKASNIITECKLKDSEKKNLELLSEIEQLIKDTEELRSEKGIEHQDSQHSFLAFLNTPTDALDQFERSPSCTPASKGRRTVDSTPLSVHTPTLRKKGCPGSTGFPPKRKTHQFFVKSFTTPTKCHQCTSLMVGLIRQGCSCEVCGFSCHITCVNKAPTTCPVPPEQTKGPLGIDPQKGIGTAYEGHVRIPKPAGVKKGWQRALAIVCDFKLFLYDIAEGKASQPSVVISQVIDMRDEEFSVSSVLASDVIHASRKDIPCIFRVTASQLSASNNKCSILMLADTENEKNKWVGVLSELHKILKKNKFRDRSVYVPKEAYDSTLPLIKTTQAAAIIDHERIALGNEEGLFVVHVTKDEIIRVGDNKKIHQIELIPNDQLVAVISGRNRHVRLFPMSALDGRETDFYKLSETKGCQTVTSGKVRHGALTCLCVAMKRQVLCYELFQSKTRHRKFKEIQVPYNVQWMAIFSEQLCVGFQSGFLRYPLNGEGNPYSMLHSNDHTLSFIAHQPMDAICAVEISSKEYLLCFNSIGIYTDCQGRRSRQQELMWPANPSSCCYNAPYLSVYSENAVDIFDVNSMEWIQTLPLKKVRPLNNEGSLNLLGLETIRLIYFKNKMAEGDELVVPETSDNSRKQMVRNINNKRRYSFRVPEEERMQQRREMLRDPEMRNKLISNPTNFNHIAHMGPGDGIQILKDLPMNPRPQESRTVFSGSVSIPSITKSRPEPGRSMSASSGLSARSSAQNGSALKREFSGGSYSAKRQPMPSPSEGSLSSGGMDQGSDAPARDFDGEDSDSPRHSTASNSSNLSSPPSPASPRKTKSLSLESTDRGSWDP
experiment summary: radiometric filter-binding kinase assay, Kinase HotSpot
experimental conditions: compound 0.5 µM; ATP 10 µM
endpoint name: residual activity (%)
The answer is to be given in %; state only the numeric part.

The cases that follow already have their residual activity on record.
Oc1ccc(-c2nc(-c3ccc(F)cc3)c(-c3ccncc3)[nH]2)cc1: 94
Cc1cc2ncc(-c3ccccc3)nc2cc1C: 81.2
Cc1ccc(NC(=O)c2ccc(CN3CCN(C)CC3)cc2)cc1Nc1nc(-c2cccnc2)cs1: 104
CCN1/C(=C/C(C)=O)Sc2ccc(OC)cc21: 85

# ---- query compound ----
Please report the recorded residual activity for COc1ccc(-c2cnc3c(-c4ccsc4)cnn3c2)cc1 .
86.8

----------
system tested: ULK3 (human) (UniProt Q6PHR2)
Sequence (Q6PHR2 whole entry, looked up): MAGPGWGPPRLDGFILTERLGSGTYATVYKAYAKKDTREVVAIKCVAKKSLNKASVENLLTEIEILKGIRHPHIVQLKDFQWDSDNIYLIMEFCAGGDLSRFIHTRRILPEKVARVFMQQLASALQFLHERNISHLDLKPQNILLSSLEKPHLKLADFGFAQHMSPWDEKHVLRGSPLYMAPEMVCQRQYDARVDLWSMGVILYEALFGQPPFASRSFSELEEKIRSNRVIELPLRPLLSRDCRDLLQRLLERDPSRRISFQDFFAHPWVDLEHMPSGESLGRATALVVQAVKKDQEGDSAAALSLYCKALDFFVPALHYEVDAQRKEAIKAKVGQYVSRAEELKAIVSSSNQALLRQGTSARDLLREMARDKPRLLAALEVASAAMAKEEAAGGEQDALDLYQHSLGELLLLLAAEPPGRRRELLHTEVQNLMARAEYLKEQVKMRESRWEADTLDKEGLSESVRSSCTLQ
experiment summary: radiometric filter-binding kinase assay, Kinase HotSpot
experimental conditions: compound 0.5 µM; ATP 10 µM
endpoint name: residual activity (%)
Enter your answer as a number in %; do not include the unit.

Cc1ccc(NC(=O)c2ccc(CN3CCN(C)CC3)cc2)cc1Nc1nc(-c2cccnc2)cs1: 104
Oc1ccc(-c2nc(-c3ccc(F)cc3)c(-c3ccncc3)[nH]2)cc1: 85.5
CSc1nc(-c2ccc(F)cc2)c(-c2ccnc(NC(C)c3ccccc3)c2)[nH]1 (stereo not given): 85.3
NC(=O)c1ccc(N(C(N)=O)c2c(F)cccc2F)nc1-c1ccc(F)cc1F: 101
O=C(Nc1ccc(Cl)cc1)c1ccccc1NCc1ccncc1: 84.7
CS(=O)c1ccc(-c2nc(-c3ccc(F)cc3)c(-c3ccncc3)[nH]2)cc1 (stereo not given): 83.2
COc1cc2ncnc(Nc3ccc(F)c(Cl)c3)c2cc1OCCCN1CCOCC1: 108
Cc1cc2ncc(-c3ccccc3)nc2cc1C: 86.4
C#Cc1cccc(Nc2ncnc3cc(OCCOC)c(OCCOC)cc23)c1: 105
CC(C)[C@H](CO)Nc1nc(Nc2cccc(Cl)c2)c2ncn(C(C)C)c2n1: 59.6

Any idea what residual activity was measured for CCCNC(=O)Nc1ccc(Oc2ncnc3cc(OC)c(OC)cc23)cc1Cl ?
80.7

residual activity for COc1cc2nccc(Oc3ccc(NC(=S)NC(=O)c4ccccc4C)cc3)c2cc1OC ?
86.8

# get_value(readout='residual activity', item= O=c1cc(N2CCNCC2)oc2c(-c3ccccc3)cccc12 )
101

Consider the compound COc1ccc(-c2cnc3c(-c4ccsc4)cnn3c2)cc1 and give its measured residual activity.
79.4

Dear colleague, I am looking for the recorded residual activity of the following compound: Clc1ccc(Nc2nnc(Cc3ccncc3)c3ccccc23)cc1
101
